Read-out: Interleukin-8 (IL8), CXCL8 (gene 3576)
Test: BSK_MyoF_IL8: BioMAP Diversity Plus: MyoF Assay for Interleukin-8 (IL8) Biomarker Activity (AID 2284261)
Details: primary human lung fibroblasts
The source made the active and inactive calls. Rule for the calls: active = hit-call score of the fitted dose curve at least 0.9, where 1 is the maximum; inactive = score below 0.9.
observable: AC50

**Query** What value of AC50 has been recorded for this entry: CCNc1nc(NC(C)(C)C)nc(SC)n1
**Result** inactive

**Query** What value of AC50 has been recorded for this entry: COc1cc(OC)nc(NC(=O)NS(=O)(=O)c2ncccc2C(=O)N(C)C)n1
**Result** inactive

**Query** What value of AC50 has been recorded for this entry: C(=NC1CCCCC1)=NC1CCCCC1
**Result** 33.1 µM (active)

**Query** What value of AC50 has been recorded for this entry: Oc1ccc(-c2ccccc2)cc1
**Result** inactive

---
**Query** What value of AC50 has been recorded for this entry: COP(=S)(OC)Oc1cc(Cl)c(Cl)cc1Cl
**Result** 4.59 µM (active)
